Parameter kcat/KM Cath-V: see the listing below.
- TARGET_OR_TEST_SYSTEM: cathepsin V (Homo sapiens, UniProt O60911)
- Construct: made in house
- Sequence (O60911 114-334): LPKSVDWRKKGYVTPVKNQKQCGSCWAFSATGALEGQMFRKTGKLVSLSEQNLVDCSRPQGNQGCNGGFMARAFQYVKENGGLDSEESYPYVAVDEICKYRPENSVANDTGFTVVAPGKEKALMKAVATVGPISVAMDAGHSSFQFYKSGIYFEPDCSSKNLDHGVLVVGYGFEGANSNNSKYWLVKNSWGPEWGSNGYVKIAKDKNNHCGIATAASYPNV
- PROTOCOL_DETAILS: Kinetic parameters of ACC substrates with cathepsin V
- Format: biochemical
- CONDITION_DETAILS: Fig. 5B; pH 5.5, 37 °C; cathepsin V 10–20 nM; triplicate, SD below 15%
Non-standard residues stand in square brackets, D forms with d. *: point of attachment. Phe(F5) = N[C@@H](Cc1c(F)c(F)c(F)c(F)c1F)C(=O)O; Phe(3,4-F2) = N[C@@H](Cc1ccc(F)c(F)c1)C(=O)O; Phe(4-F) = N[C@@H](Cc1ccc(F)cc1)C(=O)O; ACC = NC(=O)Cc1cc(=O)oc2cc(N*)ccc12; hArg = N=C(N)NCCCC[C@H](N)C(=O)O; Mob = COc1ccc(C*)cc1; Meb = Cc1ccc(C*)cc1; OBn = c1ccc(CO*)cc1
ASSAY_METRIC: kcat/KM Cath-V

substance="Ac-H[dV][Phe(F5)][hArg]-{ACC} (SMILES CC(=O)N[C@@H](Cc1c[nH]cn1)C(=O)N[C@@H](C(=O)N[C@@H](Cc1c(F)c(F)c(F)c(F)c1F)C(=O)N[C@@H](CCCCNC(=N)N)C(=O)Nc1ccc2c(CC(N)=O)cc(=O)oc2c1)C(C)C)" value_reported="175 M⁻¹ s⁻¹"
substance="Ac-H[dV][Phe(F5)]C(Mob)-{ACC} (SMILES COc1ccc(CSC[C@H](NC(=O)[C@H](Cc2c(F)c(F)c(F)c(F)c2F)NC(=O)[C@H](NC(=O)[C@H](Cc2c[nH]cn2)NC(C)=O)C(C)C)C(=O)Nc2ccc3c(CC(N)=O)cc(=O)oc3c2)cc1)" value_reported="2,070 M^-1s^-1"
substance="Ac-H[dV][Phe(F5)]E(OBn)-{ACC} (SMILES CC(=O)N[C@@H](Cc1c[nH]cn1)C(=O)N[C@@H](C(=O)N[C@@H](Cc1c(F)c(F)c(F)c(F)c1F)C(=O)N[C@@H](CCC(=O)OCc1ccccc1)C(=O)Nc1ccc2c(CC(N)=O)cc(=O)oc2c1)C(C)C)" value_reported="710 M⁻¹ s⁻¹"
substance="Ac-H[dV][Phe(3,4-F2)]R-{ACC} (SMILES CC(=O)N[C@@H](Cc1c[nH]cn1)C(=O)N[C@@H](C(=O)N[C@@H](Cc1ccc(F)c(F)c1)C(=O)N[C@@H](CCCNC(=N)N)C(=O)Nc1ccc2c(CC(N)=O)cc(=O)oc2c1)C(C)C)" value_reported="10,100 M^-1s^-1"
substance="Ac-H[dV][Phe(F5)]C(Meb)-{ACC} (SMILES CC(=O)N[C@@H](Cc1c[nH]cn1)C(=O)N[C@@H](C(=O)N[C@@H](Cc1c(F)c(F)c(F)c(F)c1F)C(=O)N[C@@H](CSCc1ccc(C)cc1)C(=O)Nc1ccc2c(CC(N)=O)cc(=O)oc2c1)C(C)C)" value_reported="1,740 M^-1s^-1"
substance="Ac-H[dL][Phe(F5)]R-{ACC} (SMILES CC(=O)N[C@@H](Cc1c[nH]cn1)C(=O)N[C@H](CC(C)C)C(=O)N[C@@H](Cc1c(F)c(F)c(F)c(F)c1F)C(=O)N[C@@H](CCCNC(=N)N)C(=O)Nc1ccc2c(CC(N)=O)cc(=O)oc2c1)" value_reported="353 M⁻¹ s⁻¹"
substance="Ac-H[dV][Phe(F5)]R-{ACC} (SMILES CC(=O)N[C@@H](Cc1c[nH]cn1)C(=O)N[C@@H](C(=O)N[C@@H](Cc1c(F)c(F)c(F)c(F)c1F)C(=O)N[C@@H](CCCNC(=N)N)C(=O)Nc1ccc2c(CC(N)=O)cc(=O)oc2c1)C(C)C)" value_reported="539 M⁻¹ s⁻¹"
substance="Ac-H[dV][Phe(4-F)]R-{ACC} (SMILES CC(=O)N[C@@H](Cc1c[nH]cn1)C(=O)N[C@@H](C(=O)N[C@@H](Cc1ccc(F)cc1)C(=O)N[C@@H](CCCNC(=N)N)C(=O)Nc1ccc2c(CC(N)=O)cc(=O)oc2c1)C(C)C)" value_reported="14,550 M^-1s^-1"
